Target: T1, Ebola virus GP with a C-terminal polyhistidine tag (Sino Biologicals, Catalog #40442-V08B1) (Ebola virus, UniProt P87666 33-650)
T1 construct: also called EbolaGP.his; Ebola virus GP.his
Assay: SPR 37C, mAb captured
MEASURE: Kd (nM)
The response must be a number in nM with no trailing unit.

H1M17354N (antibody, V domains shown, also called HCAF05C08-22) VH: QVQLVQSGAEVKKPGASVKVSCKASGYTFTSYYMHWVRQAPGQGLEWLGIINPSGGSTSYAQKFQGRVTMTRDTSTSTVYMELSSLRSEDTAVYYCARETGEAGEVFNYWGQGTQVTVSS VL: DIQMTQSPSSLSASVGDRVTITCRASQIISRYLNWYQHKPGKAPKVLIYAASTLQSGVPSRFSGSGSGTDFTLTISSLQPEDFATYYCQQSYSTPPITFGQGTRLEIK :: 113
H1H17199P (antibody, V domains shown) VH: EVQLVESGGGLVQPGGSLRLSCAASGFTFSDHYMVWVRQAPGKGLEWVGRTRNKANSYSTEYAASVKGRFTISRDDSKKSLYLQMNSLKTEDTAVYYCARGGETLWFGESNYGMDVWGQGTTVTVSS VL: EIVLTQSPDTLSLSPGERATLSCRASQSVSSTYLAWYQQKPGQAPSLLIYGASSRATGIPDRFSGSGSGTDFTLTISRLEPEDFAVYYCQQYGRSPLTFGGGTKVEIK :: 42.2

Alright, here's another binder for you.
For the binder H1H17193P (antibody, V domains shown) VH: QVQLVESGGGVVQPGRSLRLSCAASGFTFSSYGIHWVRQAPGKWLEWVAFIWFDGSNKYYADSVKGRFTISRDDSKNTLYLQMNSLRAEDTAVYYCARDGEIFGVLISSDAFDIWGQGTMVTVSS VL: DIQMTQSPSSLSASVGDRVTITCRASRGIRNDLGWFQQKPGKAPKRLIYVASNLQSGVPSRFSGSGSGTEFTLTISSLQPEDFATYYCLQHNSYPITFGQGTRLEIK , what Kd is on record? 31.8
